Target: HDAC6 (Homo sapiens, UniProt Q9UBN7)
Construct: purchased Reaction Biology Corporation (assay run by the CRO)
Sequence (Q9UBN7 whole entry): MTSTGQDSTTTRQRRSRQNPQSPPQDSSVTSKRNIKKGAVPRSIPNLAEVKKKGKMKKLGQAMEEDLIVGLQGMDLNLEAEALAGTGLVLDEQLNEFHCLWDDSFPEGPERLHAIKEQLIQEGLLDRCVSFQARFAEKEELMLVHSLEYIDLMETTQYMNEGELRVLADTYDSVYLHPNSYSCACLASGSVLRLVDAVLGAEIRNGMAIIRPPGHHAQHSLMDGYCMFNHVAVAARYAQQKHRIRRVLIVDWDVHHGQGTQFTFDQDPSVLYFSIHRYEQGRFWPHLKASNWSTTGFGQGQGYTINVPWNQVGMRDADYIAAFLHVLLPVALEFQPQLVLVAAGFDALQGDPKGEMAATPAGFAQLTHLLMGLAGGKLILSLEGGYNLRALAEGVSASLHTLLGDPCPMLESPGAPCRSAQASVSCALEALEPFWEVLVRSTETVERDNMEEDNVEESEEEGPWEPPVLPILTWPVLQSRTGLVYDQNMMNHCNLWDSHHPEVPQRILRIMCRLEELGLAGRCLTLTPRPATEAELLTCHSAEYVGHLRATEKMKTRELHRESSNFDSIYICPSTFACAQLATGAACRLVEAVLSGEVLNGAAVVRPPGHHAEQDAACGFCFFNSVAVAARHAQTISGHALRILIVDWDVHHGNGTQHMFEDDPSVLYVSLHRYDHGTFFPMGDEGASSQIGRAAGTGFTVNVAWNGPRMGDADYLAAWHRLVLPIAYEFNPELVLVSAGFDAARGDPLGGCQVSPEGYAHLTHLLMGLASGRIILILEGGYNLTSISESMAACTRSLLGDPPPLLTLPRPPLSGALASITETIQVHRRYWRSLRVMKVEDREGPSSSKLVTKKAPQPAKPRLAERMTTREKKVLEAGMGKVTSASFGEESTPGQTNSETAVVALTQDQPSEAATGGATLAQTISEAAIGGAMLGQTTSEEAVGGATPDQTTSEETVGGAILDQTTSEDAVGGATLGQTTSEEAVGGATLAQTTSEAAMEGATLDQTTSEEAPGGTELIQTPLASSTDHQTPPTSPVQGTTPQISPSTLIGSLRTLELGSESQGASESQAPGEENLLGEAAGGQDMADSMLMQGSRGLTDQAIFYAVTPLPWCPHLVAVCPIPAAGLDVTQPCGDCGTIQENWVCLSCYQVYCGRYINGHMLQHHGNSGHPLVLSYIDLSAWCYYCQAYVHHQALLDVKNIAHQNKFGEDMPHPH
Assay: HDAC6 inhibition, full IC50 measurement (Reaction Biology; fluorogenic p53 peptide RHKK(Ac)AMC)
Assay type: biochemical
Conditions: Conc. 1.52E-09 M, t2
Peptide text beside a SMILES is read from it.
Answer each item with its documented HDAC6 activity raw data (signal).
Returns: the value as a bare number; no unit string appended.

Quote HDAC6 activity raw data (signal) reported for CCCC[C@H]1NC(=O)[C@H](Cc2ccccc2)NC(=O)[C@H](CCCCCS)NC(=O)[C@@H](CCCNC(=N)N)NC(=O)[C@H](CC(=O)O)NC(=O)[C@@H](CO)NC(=O)[C@@H](C)NC(=O)[C@H](CCCCN)NC1=O [des4.3.1, SHA-Phe-dNle-Lys-dAla-dSer-Asp-dArg] (HELM PEPTIDE1{D.[dR].[O=C([C@H](CCCCCS)N[*:1])[*:2]].F.[CCCC[C@@H](N[*:1])C(=O)[*:2]].K.[dA].[dS]}$PEPTIDE1,PEPTIDE1,1:R1-8:R2$$$V2.0) please.
490649

For CCCC[C@H]1NC(=O)[C@H](Cc2ccccc2)NC(=O)[C@H](CCCCCS)NC(=O)[C@@H](CO)NC(=O)[C@H](CC(=O)O)NC(=O)[C@@H](CO)NC(=O)[C@@H](C)NC(=O)[C@H](CCCCN)NC1=O [des4.3.1.1, SHA-Phe-dNle-Lys-dAla-dSer-Asp-dSer] (HELM PEPTIDE1{D.[dS].[O=C([C@H](CCCCCS)N[*:1])[*:2]].F.[CCCC[C@@H](N[*:1])C(=O)[*:2]].K.[dA].[dS]}$PEPTIDE1,PEPTIDE1,1:R1-8:R2$$$V2.0) , write its HDAC6 activity raw data (signal).
1677368

Answer with the recorded HDAC6 activity raw data (signal) for the compound listed here: N=C(N)NCCC[C@@H]1NC(=O)[C@H](Cc2c[nH]c3ccccc23)NC(=O)[C@H](CC(=O)O)NC(=O)[C@@H](CO)NC(=O)[C@H](Cc2c[nH]c3ccccc23)NC(=O)[C@H](CCCCCS)NC(=O)[C@H](CCC(N)=O)NC1=O [des4.1.0, SHA-Trp-dSer-Asp-Trp-Arg-Gln] (HELM PEPTIDE1{D.W.R.Q.[O=C([C@H](CCCCCS)N[*:1])[*:2]].W.[dS]}$PEPTIDE1,PEPTIDE1,1:R1-7:R2$$$V2.0)
2655286

Indicate its recorded HDAC6 activity raw data (signal); the compound in question is N=C(N)NCCC[C@H]1NC(=O)[C@@H]2CCCN2C(=O)[C@H](CO)NC(=O)[C@@H](Cc2c[nH]cn2)NC(=O)[C@H](CCCCCS)NC(=O)[C@H](CCCCN)NC(=O)[C@H](Cc2ccc(O)cc2)NC(=O)[C@H]2CCCN2C(=O)[C@@H](CCC(N)=O)NC1=O [des3.1.0, SHA-dHis-Ser-Pro-dArg-dGln-dPro-Tyr-Lys] (HELM PEPTIDE1{K.[O=C([C@H](CCCCCS)N[*:1])[*:2]].[dH].S.P.[dR].[dQ].[dP].Y}$PEPTIDE1,PEPTIDE1,1:R1-9:R2$$$V2.0)
158551
